# experimentNotes: in vivo
# setupConditions: female, rat, in vivo, sc, 3 mg/kg

compound	unitName	MRT last
CN1[C@@H](CC(=O)c2ccccc2)CCC[C@H]1C[C@H](O)c1ccccc1	h	1.42
CN1[C@H](CC(=O)c2ccccc2)CCC[C@H]1C[C@H](O)c1ccccc1 (single isomer, unassigned; epimer 2) [Epimer]	h	1.5

====

# experimentNotes: in vivo
# setupConditions: female, rat, in vivo, po, 20 mg/kg
Documented Cmax across a set of compounds
outcomeMeasure: Cmax (ng/mL)

compound	outcomeMeasure	resultNumber
CN1[C@H](CC(=O)c2ccccc2)CCC[C@H]1C[C@H](O)c1ccccc1 (single isomer, unassigned; epimer 2) [Epimer]	Cmax	23.8
CN1[C@@H](CC(=O)c2ccccc2)CCC[C@H]1C[C@H](O)c1ccccc1 [Lobeline]	Cmax	42.5

====

Each record here notes measured Cmax.
# experimentNotes: in vivo
# setupConditions: female, rat, in vivo, iv, 2 mg/kg
# Protocol: Here, serial doses of lobeline were administered to male and female rats intravenously, subcutaneously or orally, and the pharmacokinetic profiles of the parent lobeline and its epimer were monitored in plasma.
outcomeMeasure: Cmax (ng/mL)

molecule	unitName	resultNumber
CN1[C@@H](CC(=O)c2ccccc2)CCC[C@H]1C[C@H](O)c1ccccc1	ng/mL	106
CN1[C@H](CC(=O)c2ccccc2)CCC[C@H]1C[C@H](O)c1ccccc1 (single isomer, unassigned; epimer 2) [Epimer]	ng/mL	53.9

====

Recorded Vd, one value per entry.
# experimentNotes: in vivo
# setupConditions: male, rat, in vivo, iv, 2 mg/kg

compound	Vd (L/kg)
CN1[C@H](CC(=O)c2ccccc2)CCC[C@H]1C[C@H](O)c1ccccc1 (single isomer, unassigned; epimer 2) [Epimer]	46.3
CN1[C@@H](CC(=O)c2ccccc2)CCC[C@H]1C[C@H](O)c1ccccc1	23.8

====

# experimentNotes: in vivo
# setupConditions: female, rat, in vivo, iv, 2 mg/kg
compounds and their reported AUC(0-inf)
outcomeMeasure: AUC(0-inf) (ng·h/mL)

compound	resultNumber
CN1[C@H](CC(=O)c2ccccc2)CCC[C@H]1C[C@H](O)c1ccccc1 (single isomer, unassigned; epimer 2) [Epimer]	76.9
CN1[C@@H](CC(=O)c2ccccc2)CCC[C@H]1C[C@H](O)c1ccccc1	134

====

# AUC(0-t) annotations
# experimentNotes: in vivo
# setupConditions: female, rat, in vivo, po, 20 mg/kg

molecule	AUC(0-t) (ng·h/mL)
CN1[C@@H](CC(=O)c2ccccc2)CCC[C@H]1C[C@H](O)c1ccccc1	62.7
CN1[C@H](CC(=O)c2ccccc2)CCC[C@H]1C[C@H](O)c1ccccc1 (single isomer, unassigned; epimer 2) [Epimer]	39.3

====

# experimentNotes: clinical
# setupConditions: human, in vivo, 7.5 mg, AUC(0-∞), epimer in plasma; individual human subjects; sublingual lobeline 7.50 mg

molecule	AUC(0-inf) [ng·h/mL]
CN1[C@H](CC(=O)c2ccccc2)CCC[C@H]1C[C@H](O)c1ccccc1 (single isomer, unassigned; epimer 2) [Epimer]	13.2

====

Listing: half-life of selected compounds
# experimentNotes: clinical
# setupConditions: human, in vivo, mean T1/2 values, human subjects, sublingual lobeline
outcomeMeasure: half-life

compound	result
CN1[C@H](CC(=O)c2ccccc2)CCC[C@H]1C[C@H](O)c1ccccc1 (single isomer, unassigned; epimer 2) [Epimer]	~2 h
CN1[C@@H](CC(=O)c2ccccc2)CCC[C@H]1C[C@H](O)c1ccccc1 [Lobeline]	~2 h
